- System: Pseudomonas aeruginosa
- assay.overview: Antibacterial activity against Pseudomonas aeruginosa ATCC 27853 after 24 hrs by MTT assay
- Format: functional
- condition.set: ATCC 27853, 24 h
quantity.name: MIC (µg/mL)
Quick note: give the figure in µg/mL, leave out the unit.

Please review the entries below; each comes with its answer.
compound	system.under.test	value.units	MIC
NC[C@H]1O[C@H](O[C@H]2[C@H](O)[C@@H](O[C@H]3O[C@H](CO)[C@@H](O)[C@H](N)[C@H]3O)[C@H](N)C[C@@H]2N)[C@H](N)[C@@H](O)[C@@H]1O [BEKANAMYCIN]	Pseudomonas aeruginosa	µg/mL	3.13
O=C(N/N=C/c1cc(Cl)cc(Cl)c1O)c1ccc2c(c1)OCCCO2	Pseudomonas aeruginosa	µg/mL	6.25
O=C(N/N=C/c1c(F)cccc1Cl)c1ccc2c(c1)OCCCO2	Pseudomonas aeruginosa	µg/mL	25

IN: Param item = CN(C)c1ccc(/C=N/NC(=O)c2ccc3c(c2)OCCCO3)cc1 ; retrieve measured MIC.
OUT: 12.5

###

- Tested on: Pseudomonas aeruginosa
- assay.overview: Antibacterial activity against Pseudomonas aeruginosa ATCC 27853 after 24 hrs by MTT assay
- Type: functional
- condition.set: ATCC 27853, 24 h
quantity.name: MIC (mg/L)
Quick note: give the figure in mg/L, leave out the unit.

> print(dat)
                            molecule.smiles  value.units  value
1   Cc1ccc(/C=N/NC(=O)c2ccc3c(c2)OCCCO3)cc1         mg/L     50
2  COc1ccc(/C=N/NC(=O)c2ccc3c(c2)OCCCO3)cc1OC         mg/L   3.13
3   O=C(N/N=C/c1ccc(I)cc1)c1ccc2c(c1)OCCCO2         mg/L     25

IN: Param item = O=C(N/N=C/c1ccc(O)cc1)c1ccc2c(c1)OCCCO2 ; retrieve measured MIC.
OUT: 25

IN: Param item = COc1ccc(/C=N/NC(=O)c2ccc3c(c2)OCCCO3)cc1 ; retrieve measured MIC.
OUT: 12.5

IN: Param item = O=C(N/N=C/c1ccccc1Cl)c1ccc2c(c1)OCCCO2 ; retrieve measured MIC.
OUT: 50

###

MIC reference
- System: Pseudomonas aeruginosa
- assay.overview: Antibacterial activity against Pseudomonas aeruginosa ATCC 27853 after 24 hrs by MTT assay
- Assay type: functional
- condition.set: ATCC 27853, 24 h

Please review the entries below; each comes with its answer.
> print(dat)
                            molecule.smiles       system.under.test       value
1  O=C(N/N=C/c1cc([N+](=O)[O-])ccc1F)c1ccc2c(c1)OCCCO2  Pseudomonas aeruginosa  12.5 µg/mL
2  O=C(N/N=C/c1ccc([N+](=O)[O-])cc1)c1ccc2c(c1)OCCCO2  Pseudomonas aeruginosa    25 µg/mL
3  O=C(N/N=C/c1ccc(Cl)cc1Cl)c1ccc2c(c1)OCCCO2  Pseudomonas aeruginosa  6.25 µg/mL

IN: Hello, I am looking for reported MIC with Pseudomonas aeruginosa for CN(C)c1ccc(/C=N/NC(=O)c2ccc3c(c2)OCCCO3)c(O)c1 . Could you help?
OUT: 12.5 µg/mL

IN: Hello, I am looking for reported MIC with Pseudomonas aeruginosa for O=C(N/N=C/c1cccc2ccccc12)c1ccc2c(c1)OCCCO2 . Could you help?
OUT: 6.25 µg/mL
